tested on: A. baumannii strain 98-37-09; test: AK assay 384-well format, Prestwick library screening; type: cell-based, Acinetobacter baumannii; settings: Acinetobacter baumannii, 983709, 3 h; 50 μM final drug concentration; 384-well format; cutoff for positive-scoring molecules 3-fold increase; read-out: AK-based Prestwick Library Screening Results, A. baumannii (increase in extracellular AK activity)
# reported fold induction at 50 µM; entries follow
Form rule: numeric answer, no unit written next to it.

C[C@H](CCC(=O)O)[C@H]1CC[C@H]2[C@@H]3C(=O)C[C@@H]4CC(=O)CC[C@]4(C)[C@H]3CC(=O)[C@]12C [Dehydrocholic acid]
1
CCCCNc1ccc(C(=O)OCCOCCOCCOCCOCCOCCOCCOCCOCCOC)cc1 [Benzonatate]
0.7

Continue with the molecule presented below.
Exercise: Find fold induction at 50 µM for O=C(CCCN1CCC(O)(c2ccc(Cl)cc2)CC1)c1ccc(F)cc1 [Haloperidol] on A. baumannii strain 98-37-09 and write it down.
Key: 1

###

system: P. aeruginosa; assay: AK assay 384-well format, Prestwick library screening; type: cell-based, Pseudomonas aeruginosa; details: Pseudomonas aeruginosa, 3 h; 50 μM final drug concentration; planktonic; cutoff for positive-scoring molecules 3-fold increase; read-out: AK-based Prestwick Library Screening Results, P. aeruginosa (fold increase in extracellular AK activity)
Structures can show the parent of a compound that is named as a salt.
observed-property: fold induction at 50 µM
Form rule: numeric answer, no unit written next to it.

The examples below pair each entry with its known result.
CC(C(=O)O)c1cccc(Oc2ccccc2)c1 (stereo not shown) [Fenoprofen calcium salt dihydrate]
0.8
COCCOC(=O)C1=C(C)NC(C)=C(C(=O)OC(C)C)C1c1cccc([N+](=O)[O-])c1 (stereo not shown) [Nimodipine]
0.9
CCOc1ccc2c(c1)C(C)=CC(C)(C)N2 [Ethoxyquin]
1.1
NC(=O)c1cc[n+](CC2=C(C(=O)O)N3C(=O)[C@@H](NC(=O)[C@@H](c4ccccc4)S(=O)(=O)[O-])[C@H]3SC2)cc1 [Cefsulodin sodium salt]
8.6
Oc1c(I)cc(Cl)c2cccnc12 [Clioquinol]
0.4

Exercise: Return the recorded fold induction at 50 µM value; entry: c1coc(CNc2ncnc3nc[nH]c23)c1 [Compound 6-Furfurylaminopurine, 6-Furfurylaminopurine]
Key: 0.7

Exercise: Return the recorded fold induction at 50 µM value; entry: CO[C@@H]1[C@@H](OC(N)=O)[C@@H](O)[C@H](Oc2ccc3c(O)c(NC(=O)c4ccc(O)c(CC=C(C)C)c4)c(=O)oc3c2C)OC1(C)C [Novobiocin sodium salt]
Key: 1

Exercise: Return the recorded fold induction at 50 µM value; entry: COC(=O)C1=C(C)NC(C)=C(C(=O)OCC(C)C)C1c1ccccc1[N+](=O)[O-] (stereo not shown) [Nisoldipine]
Key: 0.8

Exercise: Return the recorded fold induction at 50 µM value; entry: COc1ccc2cc1Oc1ccc(cc1)C[C@H]1c3cc(c(OC)cc3CCN1C)Oc1c(OC)c(OC)cc3c1[C@H](C2)N(C)CC3 [Tetrandrine]
Key: 0.9

Exercise: Return the recorded fold induction at 50 µM value; entry: CCCCC1(COC(=O)CCC(=O)O)C(=O)N(c2ccccc2)N(c2ccccc2)C1=O [Suxibuzone]
Key: 0.6

Exercise: Return the recorded fold induction at 50 µM value; entry: CC(=O)c1cc2ccccc2oc1=O [Compound 3-Acetylcoumarin, 3-Acetylcoumarin]
Key: 0.8

Exercise: Return the recorded fold induction at 50 µM value; entry: O=c1cc(-c2ccc(O)cc2)oc2c([C@@H]3O[C@H](CO)[C@@H](O)[C@H](O)[C@H]3O)c(O)cc(O)c12 [Vitexin]
Key: 0.8

Exercise: Return the recorded fold induction at 50 µM value; entry: CCN1CCN(C(=O)N[C@@H](C(=O)N[C@@H]2C(=O)N3[C@@H]2SC(C)(C)[C@@H]3C(=O)O)c2ccccc2)C(=O)C1=O [Piperacillin sodium salt]
Key: 8.7

###

system: E. cloacae; assay: AK assay 384-well format, Prestwick library screening; assay type: cell-based, Enterobacter cloacae; conditions: Enterobacter cloacae, 3 h; 50 μM final drug concentration; 384-well format; cutoff for positive-scoring molecules 3-fold increase; read-out: AK-based Prestwick Library Screening Results, E. cloacae (increase in extracellular AK activity)
Structures can show the parent of a compound that is named as a salt.
# reported fold induction at 50 µM; entries follow
Form rule: numeric answer, no unit written next to it.

The examples below pair each entry with its known result.
Clc1ccc2c(c1)C(N1CCNCC1)=Nc1ccccc1O2
0.9
O=C(NCCO[N+](=O)[O-])c1cccnc1
0.9
O=C(O)COC(=O)Cc1ccccc1Nc1c(Cl)cccc1Cl
0.8
NCc1ccc(S(N)(=O)=O)cc1 [Mafenide hydrochloride]
0.6
CCN(CC)CCOC(=O)c1ccc(N)cc1 [Procaine hydrochloride]
1.4

Exercise: Return the recorded fold induction at 50 µM value; entry: NS(=O)(=O)c1cc2c(cc1C(F)(F)F)NCNS2(=O)=O [Hydroflumethiazide]
Key: 0.7

Exercise: Return the recorded fold induction at 50 µM value; entry: CC(N)CCCC(C)(C)O (stereo not drawn) [Heptaminol hydrochloride]
Key: 0.7

Exercise: Return the recorded fold induction at 50 µM value; entry: "CC1=C(/C=C/C(C)=C/C=C/C(C)=C\C(=O)O)C(C)(C)CCC1"
Key: 0.9

Exercise: Return the recorded fold induction at 50 µM value; entry: "Nc1ccc(S(=O)(=O)Nc2nccs2)cc1"
Key: 0.7

Exercise: Return the recorded fold induction at 50 µM value; entry: CC(C)N(CCC(C(N)=O)(c1ccccc1)c1ccccn1)C(C)C (stereo not drawn) [Disopyramide]
Key: 1

Exercise: Return the recorded fold induction at 50 µM value; entry: CC(=O)OCC(=O)[C@@]1(O)CC[C@H]2[C@@H]3CCC4=CC(=O)C=C[C@]4(C)[C@@]3(F)[C@@H](O)C[C@@]21C [Isoflupredone acetate]
Key: 0.4

Exercise: Return the recorded fold induction at 50 µM value; entry: "CCc1nc(N)nc(N)c1-c1ccc(Cl)cc1"
Key: 1.3

###

# reported fold induction at 50 µM; entries follow
tested on: P. aeruginosa; experiment: AK assay 384-well format, Prestwick library screening; type: cell-based, Pseudomonas aeruginosa; settings: Pseudomonas aeruginosa, 3 h; planktonic P. aeruginosa; 50 μM final drug concentration; positive cutoff 3-fold increase; read-out: AK-based Prestwick library screening result, P. aeruginosa (fold increase in extracellular AK activity)
Structures can show the parent of a compound that is named as a salt.

The examples below pair each entry with its known result.
CNNCc1ccc(C(=O)NC(C)C)cc1 [Procarbazine hydrochloride]
0.9
CC1CC(OC(=O)c2ccccc2O)CC(C)(C)C1 (stereo not drawn) [Homosalate]
1.1
CCCNC(C)C(=O)Nc1c(C)csc1C(=O)OC (stereo not drawn) [Articaine hydrochloride]
1
O=C(CCCN1CCN(c2ccccn2)CC1)c1ccc(F)cc1 [Azaperone]
1
O=C(CCNNC(=O)c1ccncc1)NCc1ccccc1 [Nialamide]
1.2

Exercise: Return the recorded fold induction at 50 µM value; entry: CCCCN(CCCC)CCC(O)c1cc2c(Cl)cc(Cl)cc2c2cc(C(F)(F)F)ccc12 (stereo not drawn) [Halofantrine hydrochloride]
Key: 1.1

Exercise: Return the recorded fold induction at 50 µM value; entry: CCOC(=O)[C@H](CCc1ccccc1)N[C@@H](C)C(=O)N1[C@H](C(=O)O)C[C@@H]2CCC[C@@H]21 [Ramipril]
Key: 1.2

Exercise: Return the recorded fold induction at 50 µM value; entry: Nc1ccn([C@H]2CC[C@@H](CO)O2)c(=O)n1 [Zalcitabine]
Key: 1

Exercise: Return the recorded fold induction at 50 µM value; entry: Cc1[nH]c(=O)c(C#N)cc1-c1ccncc1 [Milrinone]
Key: 0.9

Exercise: Return the recorded fold induction at 50 µM value; entry: COCCCC/C(=N\OCCN)c1ccc(C(F)(F)F)cc1 [Fluvoxamine maleate]
Key: 0.8

###

test system: E. coli; test: AK assay 384-well format, Prestwick library screening; assay type: cell-based, Escherichia coli; conditions: Escherichia coli, 3 h; 50 μM final drug concentration; planktonic; cutoff for positive-scoring molecules 3-fold increase; read-out: AK-based Prestwick Library Screening Results, E. coli (fold increase in extracellular AK activity)
Where a name gives a salt, the structure may show the parent alone.
# reported fold induction at 50 µM; entries follow
Form rule: numeric answer, no unit written next to it.

COC(=O)C1=C(C)NC(C)=C(C(=O)OCC(C)C)C1c1ccccc1[N+](=O)[O-] (stereo not drawn)
0.9

Exercise: Return the recorded fold induction at 50 µM value; entry: "CCCCN(CCCC)CCCOC(=O)c1ccc(N)cc1"
Key: 0.9

Exercise: Return the recorded fold induction at 50 µM value; entry: NS(=O)(=O)c1cc(Cl)c(Cl)c(S(N)(=O)=O)c1 [Dichlorphenamide]
Key: 0.6

Exercise: Return the recorded fold induction at 50 µM value; entry: O=C(NCC1CCCCN1)c1cc(OCC(F)(F)F)ccc1OCC(F)(F)F (stereo not drawn) [Flecainide acetate]
Key: 0.6

Exercise: Return the recorded fold induction at 50 µM value; entry: CC1(C)O[C@@H]2C[C@H]3[C@@H]4CCC5=CC(=O)CC[C@]5(C)[C@@]4(F)[C@@H](O)C[C@]3(C)[C@]2(C(=O)CCl)O1 [Halcinonide]
Key: 0.6

Exercise: Return the recorded fold induction at 50 µM value; entry: NC(=O)c1cc[n+](CC2=C(C(=O)O)N3C(=O)[C@@H](NC(=O)[C@@H](c4ccccc4)S(=O)(=O)[O-])[C@H]3SC2)cc1 [Cefsulodin sodium salt]
Key: 0.9

Exercise: Return the recorded fold induction at 50 µM value; entry: COCCOC(=O)C1=C(C)NC(C)=C(C(=O)OC(C)C)C1c1cccc([N+](=O)[O-])c1 (stereo not drawn)
Key: 0.9

Exercise: Return the recorded fold induction at 50 µM value; entry: CC[C@@]1([C@@H]2O[C@@H]([C@H]3O[C@@](O)(CO)[C@H](C)C[C@@H]3C)C[C@@H]2C)CC[C@H]([C@]2(C)CC[C@]3(C[C@H](O)[C@@H](C)[C@@H]([C@@H](C)[C@@H](OC)[C@H](C)C(=O)O)O3)O2)O1 [Monensin sodium salt]
Key: 0.9

Exercise: Return the recorded fold induction at 50 µM value; entry: "COc1ccc(C(Cl)=C(c2ccc(OC)cc2)c2ccc(OC)cc2)cc1"
Key: 0.9

Exercise: Return the recorded fold induction at 50 µM value; entry: "CCn1cc(C(=O)O)c(=O)c2cnc(N3CCCC3)nc21"
Key: 0.6

Exercise: Return the recorded fold induction at 50 µM value; entry: CN[C@@H]1[C@H](O)[C@H](NC)[C@H]2O[C@@]3(O)C(=O)C[C@@H](C)O[C@H]3O[C@@H]2[C@H]1O [Spectinomycin dihydrochloride]
Key: 0.6

Exercise: Return the recorded fold induction at 50 µM value; entry: NC(=NCc1ccccc1)NC(=O)c1nc(Cl)c(N)nc1N [Benzamil hydrochloride]
Key: 0.6

From: patent US10004701B2
